biological target: rat M1 (Rattus norvegicus); construct: expressed in transfected cells; host or cells: CHO (stated in general for all functional cell-based assays); test: Calcium mobilization assay, rat M1 (agonist and PAM modes); type: cell-based; conditions: PAM mode; read-out: rM1 PAM EC50
Sequence (P08482 whole entry): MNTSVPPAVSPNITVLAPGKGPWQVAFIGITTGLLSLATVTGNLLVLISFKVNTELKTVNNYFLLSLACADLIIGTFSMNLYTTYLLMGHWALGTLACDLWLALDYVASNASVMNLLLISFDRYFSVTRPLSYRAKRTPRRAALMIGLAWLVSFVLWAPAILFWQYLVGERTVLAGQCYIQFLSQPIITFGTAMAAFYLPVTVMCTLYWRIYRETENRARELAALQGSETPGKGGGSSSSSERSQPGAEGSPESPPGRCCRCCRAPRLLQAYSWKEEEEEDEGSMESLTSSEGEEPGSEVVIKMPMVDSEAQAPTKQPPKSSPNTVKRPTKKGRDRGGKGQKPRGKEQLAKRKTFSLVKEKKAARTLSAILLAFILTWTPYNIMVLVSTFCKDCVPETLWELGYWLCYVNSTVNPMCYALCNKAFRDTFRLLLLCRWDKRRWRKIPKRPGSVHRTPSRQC
pEC50: −log10 of the molar value.
Property Name: pEC50

> print(dat)
                                   compound  endpoint.value
1  Cn1ccc2nc(C(=O)NC3CCOCC3)cc(Cc3ccc(-c4cc[nH]n4)cc3)c21 [compound 24]            7.25
2  Cn1ccc(-c2ccc(Cc3cc(C(=O)NC4CCOCC4)nc4ccsc34)cc2)n1 [compound 12]            7.20
3  Cn1ccc(-c2ccc(Cc3cc(C(=O)NC4CCOCC4)nc4ccn(C)c34)cc2)n1 [compound 11]            7.03

---

// values below are reported concentration at 3 h
Assay: Rat plasma and brain exposure, 100 mg/kg i.p., 3 h
Type: in vivo
Details: plasma, ip, 100 mg/kg i.p. in 30% captisol, 3-h, read-out: total plasma concentration
Text: Due to the prevalence of metabolite A (VU6036463, 24) in both in vitro preparations and in vivo, we first synthesized and characterized 24. Utilizing intermediate 19 (Scheme 3), a Suzuki coupling with benzyl chloride 28 afforded a mixture of N-Boc protected analog 29 and N-H analog 29a in moderate isolated yield. Hydrolysis of the nitriles to the carboxylic acid, followed by a HATU-mediated coupling with tetrahydro-2H-pyran-4-amine delivered 24 in 81% yield over the two steps.[21] […]
Property Name: concentration at 3 h

> print(dat)
                                   compound  endpoint.value
1  Cn1ccc(-c2ccc(Cc3cc(C(=O)NC4CCOCC4)nc4ccn(C)c34)cc2)n1 [compound 11]         3600 nM
2  Cn1ccc2nc(C(=O)NC3CCOCC3)cc(Cc3ccc(-c4cc[nH]n4)cc3)c21 [compound 24]         1200 nM

---

assay: Rat IV plasma:brain level cassette; format: in vivo; conditions: male, Sprague-Dawley, brain and plasma, 0.25 mg/kg, 15 min, brain:plasma
Reported Kp at 0.25 h values follow for various compounds
Property Name: Kp at 0.25 h

> print(dat)
                                   compound  property.name  endpoint.value
1  Cn1ccc(-c2ccc(Cc3cc(C(=O)NC4CCOCC4)nc4ccn(C)c34)cc2)n1 [compound 11]   Kp at 0.25 h            0.42
2  Cn1ccc(-c2ccc(Cc3cc(C(=O)NC4CCOCC4)nc4ccsc34)cc2)n1 [compound 12]   Kp at 0.25 h             1.1

---

Below: a set of entries, each annotated with reported EC50.
target: human M1 (Homo sapiens, UniProt P11229); assay: Calcium mobilization assay, human M1 (agonist and PAM modes); type: cell-based; conditions: PAM mode; read-out: hM1 PAM EC50
Property Name: EC50 (nM)

> print(dat)
                                   compound                       measurement.target  unit.annotation  endpoint.value
1  Cn1ccc2nc(C(=O)NC3CCOCC3)cc(Cc3ccc(-c4cc[nH]n4)cc3)c21 [compound 24]  human M1 (Homo sapiens, UniProt P11229)               nM             144
2  Cn1ccc(-c2ccc(Cc3cc(C(=O)NC4CCOCC4)nc4ccn(C)c34)cc2)n1 [compound 11]  human M1 (Homo sapiens, UniProt P11229)               nM             228
3  Cn1ccc(-c2ccc(Cc3cc(C(=O)NC4CCOCC4)nc4ccsc34)cc2)n1 [compound 12]  human M1 (Homo sapiens, UniProt P11229)               nM             149
4  Cn1ccc(-c2ccc(Cc3cc(C(=O)N[C@H]4CCOC[C@@H]4O)nc4ccn(C)c34)cc2)n1 [compound 30]  human M1 (Homo sapiens, UniProt P11229)               nM             4.9

---

assay: Rat dose escalation study (p.o., 30% captisol); assay type: in vivo; conditions: male, Sprague-Dawley, brain, po; rat, 300 mg/kg p.o.; read-out: total brain concentration at Cmax
Property Name: Cmax (µM)

> print(dat)
                                   compound  property.name  endpoint.value
1  Cn1ccc(-c2ccc(Cc3cc(C(=O)NC4CCOCC4)nc4ccn(C)c34)cc2)n1 [compound 11]           Cmax            17.2

---

test system: hERG; construct: Charles River; assay: Ion channel current (Charles River Study 200609.WVN); type: cell-based; conditions: human, n 3
Property Name: inhibition at 10 µM (%)

> print(dat)
                                smiles.repr  measurement.target        property.name  endpoint.value
1  Cn1ccc(-c2ccc(Cc3cc(C(=O)NC4CCOCC4)nc4ccn(C)c34)cc2)n1                hERG  inhibition at 10 µM             2.6

---

experiment: IV/PO pharmacokinetics, NHP; assay type: in vivo; settings: cynomolgus monkey, plasma, 1 mg/kg; NHP (cyno), dose iv/po 1/3 mg/kg; read-out: Vss
Property Name: Vd (L/kg)

> print(dat)
                                   compound  property.name  endpoint.value
1  Cn1ccc(-c2ccc(Cc3cc(C(=O)NC4CCOCC4)nc4ccsc34)cc2)n1 [compound 12]             Vd             0.7

---

assay: IV/PO pharmacokinetics, NHP; type: in vivo; details: cynomolgus monkey, plasma, 1 mg/kg; NHP (cyno), dose iv/po 1/5 mg/kg; read-out: elimination t1/2 (converted)
Property Name: half-life (h)

> print(dat)
                                   molecule  unit.annotation  endpoint.value
1  Cn1ccc(-c2ccc(Cc3cc(C(=O)NC4CCOCC4)nc4ccn(C)c34)cc2)n1 [compound 11]                h               1

---

Target: human M1 (Homo sapiens, UniProt P11229)
Sequence (P11229 1-460): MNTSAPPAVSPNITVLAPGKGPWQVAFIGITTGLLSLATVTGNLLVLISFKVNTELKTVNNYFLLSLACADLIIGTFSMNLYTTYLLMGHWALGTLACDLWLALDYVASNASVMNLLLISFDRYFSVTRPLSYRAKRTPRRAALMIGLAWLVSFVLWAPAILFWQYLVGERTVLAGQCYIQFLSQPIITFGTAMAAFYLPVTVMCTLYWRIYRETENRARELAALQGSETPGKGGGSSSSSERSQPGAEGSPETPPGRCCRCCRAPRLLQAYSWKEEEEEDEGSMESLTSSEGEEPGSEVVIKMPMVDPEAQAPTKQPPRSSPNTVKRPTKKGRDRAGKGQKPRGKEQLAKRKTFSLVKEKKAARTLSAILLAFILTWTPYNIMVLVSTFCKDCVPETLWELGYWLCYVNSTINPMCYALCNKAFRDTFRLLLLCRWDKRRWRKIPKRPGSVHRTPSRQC
Assay: Calcium mobilization assay, human M1 (agonist and PAM modes)
Format: cell-based
Conditions: agonist mode, % ACh max
Property Name: hM1 Agonist AChmax (%)

> print(dat)
                                smiles.repr  endpoint.value
1  Cn1ccc(-c2ccc(Cc3cc(C(=O)NC4CCOCC4)nc4ccn(C)c34)cc2)n1              24
2  Cn1ccc(-c2ccc(Cc3cc(C(=O)N[C@H]4CCOC[C@@H]4O)nc4ccn(C)c34)cc2)n1              60
3  Cn1ccc2nc(C(=O)NC3CCOCC3)cc(Cc3ccc(-c4cc[nH]n4)cc3)c21              36
4  Cn1ccc(-c2ccc(Cc3cc(C(=O)NC4CCOCC4)nc4ccsc34)cc2)n1              38

---

Below, each of the compounds is paired with its reported pIC50 value.
system: CYP3A4, CYP1A2, CYP2C9 and CYP2D6; assay: CYP450 profile (summary over four isoforms); format: in vitro ADME; details: human; summary over the four isoforms; read-out: CYP450 IC50s against CYP3A4, CYP1A2, CYP2C9 and CYP2D6
pIC50: −log10 of the molar value.
Property Name: pIC50

> print(dat)
                                   compound                 measurement.target  endpoint.value
1  Cn1ccc(-c2ccc(Cc3cc(C(=O)NC4CCOCC4)nc4ccn(C)c34)cc2)n1 [compound 11]  CYP3A4, CYP1A2, CYP2C9 and CYP2D6          < 4.80
2  Cn1ccc(-c2ccc(Cc3cc(C(=O)NC4CCOCC4)nc4ccsc34)cc2)n1 [compound 12]  CYP3A4, CYP1A2, CYP2C9 and CYP2D6          < 4.80
